test: Solubility of Compound I sodium salt forms in solvents and binary solvent systems; assay type: physicochemical; settings: organic solvent or mixture, thermodynamic from solid; Ethanol/water, 88:12 v/v, 55° C.; read-out: Solubility
Reported Endpoint: solubility

Q: Entry under review: O=C(O)c1cc(-c2ccc(OC3CC3)c(Cl)c2)ncn1 [Compound I sodium Form B] . Reported solubility?
Ans: ~2000 µg/mL

====

assay: Solubility of Compound I sodium salt forms in solvents and binary solvent systems; type: physicochemical; settings: organic solvent or mixture, thermodynamic from solid; Acetonitrile, 55° C.; read-out: Solubility
Reported Endpoint: solubility

Q: Suppose we examine the compound O=C(O)c1cc(-c2ccc(OC3CC3)c(Cl)c2)ncn1 [Compound I sodium Form B] ; what solubility value has been reported?
Ans: < 2000 µg/mL
